# Tested on: Tubulin
# EXPERIMENTAL DETAILS: Compound was evaluated for the inhibition of MAP-rich tubulin polymerisation at 0.3 uM
What inhibition was measured for each of the following?
Express the result in % but write the number alone.

Quick one: inhibition of CN[C@H](C(=O)N[C@H](C(=O)N(C)[C@H](/C=C(\C)C(=O)O)C(C)C)C(C)OC)C(C)(C)c1ccccc1 (stereo partly specified) ?
95

Quick one: inhibition of CN[C@H](C(=O)N[C@H](C(=O)N(C)[C@H](/C=C(\C)C(=O)O)C(C)C)C(C)(C)SCc1ccc(OC)cc1)C(C)(C)c1ccc(OC)cc1 ?
77

Quick one: inhibition of CN[C@H](C(=O)N[C@H](C(=O)N(C)[C@H](/C=C(\C)C(=O)O)C(C)C)C(C)(C)O)C(C)(C)c1ccccc1 ?
84

Quick one: inhibition of CN[C@H](C(=O)N[C@H](C(=O)N(C)[C@H](/C=C(\C)C(=O)O)C(C)C)C(C)(C)SC)C(C)(C)c1ccc(OC)cc1 ?
88

Quick one: inhibition of CN[C@H](C(=O)N[C@H](C(=O)N(C)[C@H](/C=C(\C)C(=O)O)C(C)C)C(C)(C)S(C)(=O)=O)C(C)(C)c1ccccc1 ?
87

Quick one: inhibition of CN[C@H](C(=O)N[C@H](C(=O)N(C)[C@H](/C=C(\C)C(=O)O)C(C)C)C(C)O)C(C)(C)c1ccccc1 (stereo partly specified) ?
91

Quick one: inhibition of CN[C@H](C(=O)N[C@H](C(=O)N(C)[C@H](/C=C(\C)C(=O)O)C(C)C)C(C)(C)[S+](C)[O-])C(C)(C)c1ccccc1 (stereo partly specified) ?
43

Quick one: inhibition of CN[C@H](C(=O)N[C@@H](C(=O)N(C)[C@H](/C=C(\C)C(=O)O)C(C)C)C(C)O)C(C)(C)c1ccccc1 (stereo partly specified) ?
9

Quick one: inhibition of CN[C@H](C(=O)N[C@H](C(=O)N(C)[C@H](/C=C(\C)C(=O)O)C(C)C)C(C)(C)SCc1ccc(OC)cc1)C(C)(C)c1ccccc1 ?
94

Quick one: inhibition of CN[C@H](C(=O)N[C@H](C(=O)N(C)[C@H](/C=C(\C)C(=O)O)C(C)C)C(C)(C)F)C(C)(C)c1ccccc1 ?
91

Quick one: inhibition of CN[C@H](C(=O)N[C@H](C(=O)N(C)[C@H](/C=C(\C)C(=O)O)C(C)C)C(C)(C)c1ccc(OC)cc1)C(C)(C)c1ccccc1 ?
56

====

# Test system: KB 3-1
# EXPERIMENTAL DETAILS: Compound was tested for the cytotoxicity against KB-3-1 cell line
# Type: functional, cell-based
# STUDY CONDITIONS: Homo sapiens
ASSAY ENDPOINT: log10 IC50 (log10 of the value in nM)
The figures below represent log10 of IC50, where IC50 is stated in nM.

Quick one: log10 IC50 of CN[C@H](C(=O)N[C@H](C(=O)N(C)[C@H](/C=C(\C)C(=O)O)C(C)C)C(C)(C)SC)C(C)(C)c1ccccc1 ?
0.08

Quick one: log10 IC50 of CN[C@H](C(=O)N[C@H](C(=O)N(C)[C@H](/C=C(\C)C(=O)O)C(C)C)C(C)(C)SCc1ccc(OC)cc1)C(C)(C)c1ccc(OC)cc1 ?
1.20

Quick one: log10 IC50 of CN[C@H](C(=O)N[C@H](C(=O)N(C)[C@H](/C=C(\C)C(=O)O)C(C)C)C(C)(C)c1ccc(OC)cc1)C(C)(C)c1ccccc1 ?
1.41

Quick one: log10 IC50 of CN[C@H](C(=O)N[C@H](C(=O)N(C)[C@H](/C=C(\C)C(=O)O)C(C)C)C(C)(C)S(C)(=O)=O)C(C)(C)c1ccccc1 ?
2.25

Quick one: log10 IC50 of CN[C@H](C(=O)N[C@H](C(=O)N(C)[C@H](/C=C(\C)C(=O)O)C(C)C)C(C)O)C(C)(C)c1ccccc1 (some centres not stated) ?
2.44

Quick one: log10 IC50 of CN[C@H](C(=O)N[C@H](C(=O)N(C)[C@H](/C=C(\C)C(=O)O)C(C)C)C(C)(C)O)C(C)(C)c1ccccc1 ?
1.76
